assay: Solvent solubility screen of Compound A (aliquot addition, HPLC of saturated solutions); format: physicochemical; conditions: heptane, 40 °C, organic solvent or mixture, thermodynamic from solid, Heptane; read-out: Approximate Solubility
measured-metric: solubility (µg/mL)
Write the answer as a number in µg/mL, unit excluded.

Measured solubility, COc1cc(O[C@H]2C(C)(C)[C@H](NC(=O)c3ccc(N4CCC(CN5CCN(c6ccc(C(=O)N[C@H]7CCC(=O)NC7=O)c(F)c6)CC5)CC4)cc3)C2(C)C)ccc1C#N : 1.7

###

test: Solvent solubility screen of Compound A (aliquot addition, HPLC of saturated solutions); type: physicochemical; settings: THF, organic solvent or mixture, thermodynamic from solid, THF; read-out: solubility
measured-metric: solubility

Measured solubility, COc1cc(O[C@H]2C(C)(C)[C@H](NC(=O)c3ccc(N4CCC(CN5CCN(c6ccc(C(=O)N[C@H]7CCC(=O)NC7=O)c(F)c6)CC5)CC4)cc3)C2(C)C)ccc1C#N [Compound A] : 50 to 100 mg/mL

###

experiment: Co-crystal screen: XRPD post temperature cycling and post storage at 40° C./75% RH; type: physicochemical; conditions: Compound A + 1.05 eq. co-former (= label); DCM:Methanol (50:50 % v/v)
measured-metric: XRPD results, primary co-crystal screen post storage at 40° C./75% RH

Example entries and their recorded answers appear below.
- compound: "NC(=O)c1cccnc1 [Nicotinamide]"
  obs-value: 2
- compound: "N[C@@H](Cc1ccc(O)cc1)C(=O)O"
  obs-value: 2
- compound: "O=C(O)[C@@H]1CCCN1"
  obs-value: 2
- compound: "N[C@@H](Cc1c[nH]cn1)C(=O)O"
  obs-value: 2

(1) NC(N)=O
(2) COC(=O)c1ccc(O)cc1
Please tell me which of the two, 1 or 2 , has the higher reported XRPD results, primary co-crystal screen post storage at 40° C./75% RH value. Returns: label corresponding to the selected item.
1
(1: 2, 2: 1)

###

assay: Solvent solubility screen of Compound A (aliquot addition, HPLC of saturated solutions); format: physicochemical; details: tetrahydrofuran:water (98:2% v/v), organic solvent or mixture, thermodynamic from solid, Tetrahydrofuran:Water (98:2% v/v); read-out: Approximate solubility
measured-metric: solubility

Measured solubility, COc1cc(O[C@H]2C(C)(C)[C@H](NC(=O)c3ccc(N4CCC(CN5CCN(c6ccc(C(=O)N[C@H]7CCC(=O)NC7=O)c(F)c6)CC5)CC4)cc3)C2(C)C)ccc1C#N : ~50 mg/mL

###

experiment: Primary salt screen: XRPD post temperature cycling/evaporation, post drying and post storage at 40° C./75% RH; format: physicochemical; details: Compound A + 1.05 eq. counterion (= label); DCM
measured-metric: XRPD results post temperature cycling and evaporation

Example entries and their recorded answers appear below.
- compound: "O=C(O)/C=C/C(=O)O"
  obs-value: "A e"
- compound: "O=C(O)CC(O)(CC(=O)O)C(=O)O"
  obs-value: "A e"
- compound: "Cl [Hydrochloric acid]"
  obs-value: "t S"
- compound: "O=S(=O)(O)c1ccccc1"
  obs-value: "A e"
- compound: "O=C(O)C[C@H](O)C(=O)O"
  obs-value: "A e"

Measured XRPD results post temperature cycling and evaporation, Cc1ccc(S(=O)(=O)O)cc1 : A e

Measured XRPD results post temperature cycling and evaporation, O=C(O)CC(=O)O : A e

Measured XRPD results post temperature cycling and evaporation, O=C(O)/C=C\C(=O)O : C e
